Target: hCRTH2 receptor (Homo sapiens, UniProt Q9Y5Y4)
Construct: expressed in transfected cells; host or cells: HEK293
Sequence (Q9Y5Y4 1-395): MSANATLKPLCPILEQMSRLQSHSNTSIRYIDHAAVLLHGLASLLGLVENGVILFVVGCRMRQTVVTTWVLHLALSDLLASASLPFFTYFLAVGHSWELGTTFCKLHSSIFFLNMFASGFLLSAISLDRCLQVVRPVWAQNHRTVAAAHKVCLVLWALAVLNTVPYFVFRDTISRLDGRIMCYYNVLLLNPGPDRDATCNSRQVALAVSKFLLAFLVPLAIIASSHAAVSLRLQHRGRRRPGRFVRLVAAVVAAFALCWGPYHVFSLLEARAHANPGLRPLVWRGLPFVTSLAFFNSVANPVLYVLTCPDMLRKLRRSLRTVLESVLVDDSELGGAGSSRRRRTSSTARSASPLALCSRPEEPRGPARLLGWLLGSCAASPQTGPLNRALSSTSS
Assay: Radioligand displacement assay (3H-PGD2) on hCRTH2 receptor membranes
Assay type: binding
Conditions: antagonistic activity, 3H-PGD2 radioligand displacement, HEK293-hCRTH2 membranes
Give pIC50 for every item shown.
Please note pIC50 is a logarithmic value: minus log10 of concentration in mol/L. Answer with that number alone.

What does the data say about its pIC50? Entry: O=C(O)COc1ccc(Cl)cc1[C@@H]1c2ccc(F)c(F)c2CCN1C(=O)OCc1cnccn1 [Example 308] 8.77

Same question for COc1ccc2ccn(CCC(=O)N3CCc4ccccc4C3c3cc(Cl)ccc3OCC(=O)O)c2c1 (racemic) [Example 390] please. 8.12

Same question for O=C(O)COc1ccc(Cl)cc1C1c2ccccc2CN1C(=O)C1CC1c1cccc(Cl)c1 (stereo not shown) [Example 524] please. 7.09

Same question for O=C(O)COc1ccc(Cl)cc1[C@@H]1c2ccc(F)c(F)c2CCN1C(=O)OCc1cccc(F)c1F [Example 351] please. 8.49

* * *

Give IC50 for every item shown.
Target: hCRTH2 receptor (Homo sapiens, UniProt Q9Y5Y4)
Construct: expressed in transfected cells; host or cells: HEK293
Assay: Radioligand displacement assay (3H-PGD2) on hCRTH2 receptor membranes
Type: binding
Details: antagonistic activity; 3H-PGD2 displacement on HEK293-hCRTH2 membrane fragments
Answer with a number only, understood to be in nM.

What does the data say about its IC50? Entry: CS(=O)(=O)c1ccc(CCC(=O)N2CCc3ccccc3C2c2cc(F)ccc2OCC(=O)O)cc1 (racemic) 983

Same question for C[C@H](OC(=O)N1CCc2ccccc2[C@H]1c1cc(Cl)ccc1OCC(=O)O)c1ccccc1 please. 97.1

Same question for O=C(O)COc1ccc(F)cc1C1c2ccccc2CCN1C(=O)CCOc1ccccc1 (racemic) please. 73.9

Same question for O=C(O)COc1ccc(Cl)cc1C1c2ccccc2CCN1C(=O)[C@@H]1C[C@H]1c1ccc(Cl)cc1Cl (mixture of isomers) please. 37.6

Same question for O=C(O)COc1ccc(Cl)cc1C1c2ccccc2CCN1C(=O)C1CC1c1ccccc1C(F)(F)F (single isomer, unassigned) [Example 156] please. 14.2

Same question for Cn1ccc(COCC(=O)N2CCc3ccccc3C2c2cc(F)ccc2OCC(=O)O)n1 (racemic) please. 323

Same question for O=C(O)COc1ccc(Cl)cc1C1c2ccccc2CCN1C(=O)OCc1c(F)cccc1F (racemic) please. 6.84

Same question for O=C(O)COc1ccc(C(F)(F)F)cc1C1c2ccccc2CCN1C(=O)OCc1ccccc1 (racemic) please. 50.7

Same question for COc1ccccc1[C@@H]1C[C@H]1C(=O)N1CCc2ccccc2C1c1cc(Cl)ccc1OCC(=O)O (mixture of isomers) please. 21.2

Same question for CC(C)COC(=O)N1CCc2ccccc2C1c1cc(F)ccc1OCC(=O)O (racemic) please. 47.7

Same question for O=C(O)COc1ccc(Cl)cc1C1c2ccccc2CCN1C(=O)CCCc1ccccc1 (racemic) please. 20.6

Same question for Cc1cc(C)c(COC(=O)N2CCc3ccccc3C2c2cc(Cl)ccc2OCC(=O)O)c(C)c1 (racemic) please. 12.3

Same question for O=C(O)COc1ccc(F)cc1C1c2ccccc2CCN1C(=O)COCc1ccccc1 (racemic) please. 20

Same question for COc1cccc(COC(=O)N2CCc3ccccc3C2c2cc(Cl)ccc2OCC(=O)O)c1OC (racemic) please. 4.9

Same question for Cc1ccccc1/C=C/C(=O)N1CCc2ccccc2C1c1cc(F)ccc1OCC(=O)O (racemic) please. 349

* * *

Target: hCRTH2 receptor (Homo sapiens, UniProt Q9Y5Y4)
Construct: expressed in transfected cells; host or cells: HEK293
Assay: Radioligand displacement assay (3H-PGD2) on hCRTH2 receptor membranes
Assay type: binding
Conditions: antagonistic activity, 3H-PGD2 radioligand displacement, HEK293-hCRTH2 membranes
PROPERTY LABEL: pIC50
Please note pIC50 is a logarithmic value: minus log10 of concentration in mol/L. Answer with that number alone.

What does the data say about its pIC50? Entry: O=C(O)COc1ccc(Cl)cc1C1c2ccccc2CCN1C(=O)CCn1ccc2ncc(Cl)nc21 (racemic) [Example 404] 7.37

Same question for O=C(O)COc1ccc(Cl)cc1[C@@H]1c2ccc(F)cc2CCN1C(=O)OCc1nc2ccccc2o1 [Example 345] please. 7.91

Same question for O=C(O)COc1ccc(Cl)cc1[C@@H]1c2ccc(F)cc2CCN1C(=O)OCc1cnccn1 [Example 332] please. 8.12

Same question for Cn1nccc1COC(=O)N1CCc2c(ccc(F)c2F)[C@H]1c1cc(Cl)ccc1OCC(=O)O [Example 312] please. 8.33

Same question for NC(=O)c1ncccc1OCC(=O)N1CCc2ccccc2C1c1cc(Cl)ccc1OCC(=O)O (racemic) [Example 479] please. 6.70

Same question for O=C(O)COc1ccc(Cl)cc1C1c2ccccc2CCN1C(=O)COc1ccc(F)cc1 (racemic) [Example 407] please. 7.46

Same question for O=C(O)COc1ccc(Cl)cc1C1c2ccccc2CCN1C(=O)COc1cccnc1OCCO (racemic) [Example 475] please. 6.47

* * *

Target: hCRTH2 receptor (Homo sapiens, UniProt Q9Y5Y4)
Construct: expressed in transfected cells; host or cells: HEK293
Sequence (Q9Y5Y4 1-395): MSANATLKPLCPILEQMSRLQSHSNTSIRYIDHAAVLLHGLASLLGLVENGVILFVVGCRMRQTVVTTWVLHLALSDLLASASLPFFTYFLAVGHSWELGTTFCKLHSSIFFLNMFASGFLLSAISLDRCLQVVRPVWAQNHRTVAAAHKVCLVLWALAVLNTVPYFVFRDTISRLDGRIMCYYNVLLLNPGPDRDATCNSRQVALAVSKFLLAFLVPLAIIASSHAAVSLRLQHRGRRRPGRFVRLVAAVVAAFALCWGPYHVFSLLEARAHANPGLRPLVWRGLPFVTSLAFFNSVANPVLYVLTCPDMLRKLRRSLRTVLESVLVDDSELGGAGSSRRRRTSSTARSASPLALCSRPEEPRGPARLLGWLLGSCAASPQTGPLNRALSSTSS
Experiment: Radioligand displacement assay (3H-PGD2) on hCRTH2 receptor membranes
Assay type: binding
Conditions: antagonistic activity; 3H-PGD2 displacement on HEK293-hCRTH2 membrane fragments
pIC50: −log10 of the molar value.
Everything with pIC50 lower than 8 is class 0; everything else, including exactly 8, is class 1.

Check the entry COc1cccc(CCCC(=O)N2CCc3ccccc3C2c2cc(Cl)ccc2OCC(=O)O)c1 (racemic) : does pIC50 equal or exceed 8? class 0

Same question for NC(=O)c1ccc(OCC(=O)O)c(C2c3ccccc3CCN2C(=O)OCc2ccccc2)c1 (racemic) please. class 0

Same question for O=C(O)COc1ccc(Cl)cc1[C@@H]1c2ccccc2CCN1C(=O)OCc1nccs1 please. class 1

Same question for O=C(O)COc1ccc(Cl)cc1[C@@H]1c2ccccc2CCN1C(=O)OCc1cnccn1 please. class 1

Same question for O=C(O)COc1ccc(Cl)cc1C1c2ccccc2CCN1C(=O)CCN1C(=O)CSC1c1ccccc1 (stereo not drawn) please. class 0

Same question for N#Cc1ccc(OCC(=O)O)c(C2c3ccc(F)c(F)c3CCN2C(=O)OCc2ccccc2)c1 (racemic) please. class 1

Same question for CS(=O)(=O)c1ccc(OCC(=O)O)c(C2c3ccccc3CCN2C(=O)OCc2ccccc2)c1 (racemic) please. class 0

Same question for O=C(O)COc1ccc(F)cc1C1c2ccccc2CCN1C(=O)CCOc1ccccc1F (racemic) please. class 0

Same question for Cc1ncsc1CCOC(=O)N1CCc2ccccc2[C@H]1c1cc(Cl)ccc1OCC(=O)O please. class 1

Same question for O=C(O)COc1ccc(Cl)cc1C1c2ccccc2CCN1C(=O)CCCc1ccccc1F (racemic) please. class 0

Same question for O=C(O)COc1ccc(F)cc1C1c2ccccc2CCN1C(=O)CCc1c[nH]c2ccccc12 (racemic) please. class 0

Same question for COc1ccc2onc(CC(=O)N3CCc4ccccc4C3c3cc(Cl)ccc3OCC(=O)O)c2c1 (racemic) please. class 0

Same question for Cn1cc(CCC(=O)N2CCc3ccccc3C2c2cc(F)ccc2OCC(=O)O)c2ccccc21 (racemic) please. class 0

Same question for N#Cc1ccc(OCC(=O)O)c([C@@H]2c3ccccc3CCN2C(=O)OCc2ccccc2)c1 please. class 1

Same question for Cc1cccc(CCCC(=O)N2CCc3ccccc3C2c2cc(Cl)ccc2OCC(=O)O)c1 (racemic) please. class 0

Same question for O=C(O)COc1ccc(Cl)cc1C1c2ccccc2CCN1C(=O)[C@@H]1C[C@H]1c1ccccc1 (mixture of isomers) please. class 1

Same question for C[C@H](Oc1ccc(F)cc1C1c2ccccc2CCN1C(=O)OCc1ccccc1)C(=O)O (stereo partly drawn) please. class 0

Same question for COc1ccccc1OC(=O)N1CCc2ccccc2C1c1cc(F)ccc1OCC(=O)O (racemic) please. class 0

Same question for Cn1cc(CCC(=O)N2CCc3ccccc3C2c2cc(Cl)ccc2OCC(=O)O)c2ccccc21 (racemic) please. class 1

Same question for O=C(O)COc1ccc(F)cc1C1c2ccccc2CCN1C(=O)CN1Cc2ccccc2C1 (racemic) please. class 0

Same question for O=C(O)COc1cc(F)ccc1C1c2ccccc2CCN1C(=O)OCc1ccccc1 (racemic) please. class 0

Same question for COc1ccc2[nH]c(CC(=O)N3CCc4ccccc4C3c3cc(Cl)ccc3OCC(=O)O)cc2c1 (racemic) please. class 0

Same question for O=C(O)COc1ccc(Cl)cc1C1c2cc(F)cc(F)c2CCN1C(=O)OCc1ccccc1 (racemic) please. class 1

Same question for O=C(O)COc1ccc(F)cc1C1c2ccccc2CCN1C(=O)COc1ccccc1 (racemic) please. class 0

Same question for O=C(O)COc1ccc(Cl)cc1C1c2ccccc2CCN1C(=O)CCCc1ccccc1Cl (racemic) please. class 0

Same question for O=C(O)COc1ccc(F)cc1C1c2ccccc2CCN1C(=O)CCN1CCc2ccccc21 (racemic) please. class 0
